- System: PC-3
- procedure.summary: Cytotoxicity against human PC3 cells
- Assay type: functional
- condition.summary: read-out: ED50 (the source's name)
pEC50: −log10 of the molar value.
Assign class by pEC50: not lower than 5 means true; lower than 5 means false.

Would you please look over these solved cases?
{"compound": "COc1cc(/C=C/C(C)=O)ccc1OC(=O)[C@@]1(C)CC[C@]2(C)CC[C@]3(C)C(=CC(=O)[C@@H]4[C@@]5(C)CC[C@H](O)C(C)(C)[C@@H]5CC[C@]43C)[C@@H]2C1", "assayed.target": "PC-3", "group": "true"}
{"compound": "COc1ccc(/C=C/C(=O)c2ccccc2)cc1OC(=O)[C@@]1(C)CC[C@]2(C)CC[C@]3(C)C(=CC(=O)[C@@H]4[C@@]5(C)CC[C@H](O)C(C)(C)[C@@H]5CC[C@]43C)[C@@H]2C1", "assayed.target": "PC-3", "group": "false"}
{"compound": "COc1cccc(/C=C/C(C)=O)c1OC(=O)[C@@]1(C)CC[C@]2(C)CC[C@]3(C)C(=CC(=O)[C@@H]4[C@@]5(C)CC[C@H](O)C(C)(C)[C@@H]5CC[C@]43C)[C@@H]2C1", "assayed.target": "PC-3", "group": "true"}
{"compound": "CC1(C)[C@@H](O)CC[C@]2(C)[C@H]3C(=O)C=C4[C@@H]5C[C@@](C)(C(=O)O)CC[C@]5(C)CC[C@@]4(C)[C@]3(C)CC[C@@H]12 [ENOXOLONE]", "assayed.target": "PC-3", "group": "false"}
{"compound": "CCOc1cc(/C=C/C(C)=O)ccc1OC(=O)[C@@]1(C)CC[C@]2(C)CC[C@]3(C)C(=CC(=O)[C@@H]4[C@@]5(C)CC[C@H](O)C(C)(C)[C@@H]5CC[C@]43C)[C@@H]2C1", "assayed.target": "PC-3", "group": "true"}

Problem: Reported pEC50 reaches at least 5 for COc1ccc(/C=C/C(C)=O)cc1OC(=O)[C@@]1(C)CC[C@]2(C)CC[C@]3(C)C(=CC(=O)[C@@H]4[C@@]5(C)CC[C@H](O)C(C)(C)[C@@H]5CC[C@]43C)[C@@H]2C1 ?
Result: true

Problem: Reported pEC50 reaches at least 5 for COc1ccc(/C=C/C(=O)c2ccccc2)c(OC(=O)[C@@]2(C)CC[C@]3(C)CC[C@]4(C)C(=CC(=O)[C@@H]5[C@@]6(C)CC[C@H](O)C(C)(C)[C@@H]6CC[C@]54C)[C@@H]3C2)c1 ?
Result: false

Problem: Reported pEC50 reaches at least 5 for COc1cccc2c1C(=O)c1c(O)c3c(c(O)c1C2=O)C[C@@](O)(C(=O)CO)C[C@@H]3O[C@H]1C[C@H](N)[C@H](O)[C@H](C)O1 [DOXORUBICIN] ?
Result: true

Problem: Reported pEC50 reaches at least 5 for CCOc1cccc(/C=C/C(C)=O)c1OC(=O)[C@@]1(C)CC[C@]2(C)CC[C@]3(C)C(=CC(=O)[C@@H]4[C@@]5(C)CC[C@H](O)C(C)(C)[C@@H]5CC[C@]43C)[C@@H]2C1 ?
Result: true

Problem: Reported pEC50 reaches at least 5 for COc1cc(/C=C/C(=O)c2ccccc2)ccc1OC(=O)[C@@]1(C)CC[C@]2(C)CC[C@]3(C)C(=CC(=O)[C@@H]4[C@@]5(C)CC[C@H](O)C(C)(C)[C@@H]5CC[C@]43C)[C@@H]2C1 ?
Result: false

Problem: Reported pEC50 reaches at least 5 for COc1cc(/C=C/C(C)=O)ccc1O [DEHYDROZINGERONE] ?
Result: false

Problem: Reported pEC50 reaches at least 5 for CC(=O)/C=C/c1cccc(F)c1OC(=O)[C@@]1(C)CC[C@]2(C)CC[C@]3(C)C(=CC(=O)[C@@H]4[C@@]5(C)CC[C@H](O)C(C)(C)[C@@H]5CC[C@]43C)[C@@H]2C1 ?
Result: true

Problem: Reported pEC50 reaches at least 5 for COc1cccc(/C=C/C(=O)c2ccccc2)c1OC(=O)[C@@]1(C)CC[C@]2(C)CC[C@]3(C)C(=CC(=O)[C@@H]4[C@@]5(C)CC[C@H](O)C(C)(C)[C@@H]5CC[C@]43C)[C@@H]2C1 ?
Result: false

----------
- Tested on: HCT-8
- procedure.summary: Cytotoxicity against human HCT8 cells
- Type: functional
- condition.summary: read-out: ED50 (the source's name)
pEC50: −log10 of the molar value.
# pEC50 per entry

{"compound": "COc1cc(/C=C/C(C)=O)ccc1O [DEHYDROZINGERONE]", "value": "< 4.28"}
{"compound": "COc1cc(/C=C/C(=O)c2ccccc2)ccc1OC(=O)[C@@]1(C)CC[C@]2(C)CC[C@]3(C)C(=CC(=O)[C@@H]4[C@@]5(C)CC[C@H](O)C(C)(C)[C@@H]5CC[C@]43C)[C@@H]2C1", "value": "< 4.85"}
{"compound": "COc1ccc(/C=C/C(=O)c2ccccc2)cc1OC(=O)[C@@]1(C)CC[C@]2(C)CC[C@]3(C)C(=CC(=O)[C@@H]4[C@@]5(C)CC[C@H](O)C(C)(C)[C@@H]5CC[C@]43C)[C@@H]2C1", "value": "< 4.85"}
{"compound": "COc1cccc(/C=C/C(=O)c2ccccc2)c1OC(=O)[C@@]1(C)CC[C@]2(C)CC[C@]3(C)C(=CC(=O)[C@@H]4[C@@]5(C)CC[C@H](O)C(C)(C)[C@@H]5CC[C@]43C)[C@@H]2C1", "value": "< 4.85"}

Problem: # get_value(readout='pEC50', item= COc1ccc(/C=C/C(=O)c2ccccc2)c(OC(=O)[C@@]2(C)CC[C@]3(C)CC[C@]4(C)C(=CC(=O)[C@@H]5[C@@]6(C)CC[C@H](O)C(C)(C)[C@@H]6CC[C@]54C)[C@@H]3C2)c1 )
Result: < 4.85
